Tested on: HSV-1
Assay Remarks: HSV Antiviral (ELISA) assay
Assay type: cell-based
Condition Parameters: HSV-1 in Vero cells
Reported IC50 (ug/ml) HSV by item:
Experimental Endpoint: IC50 (ug/ml) HSV

>>> data_value("Cc1ccc(CCNC(=S)Nc2ccc(NC(=O)c3ccco3)cc2)cc1 [Example 605]")
">10 µg/mL"
>>> data_value("O=C(Nc1ccc(NC(=S)NCCc2c(Cl)cccc2Cl)cc1)c1csnn1 [Example 709]")
">10 µg/mL"
>>> data_value("O=C(Nc1ccc(NC(=S)Nc2cc(Cl)ccc2Cl)cc1)c1csnn1 [Example 866]")
">10 µg/mL"

* * *

Test system: VZV strain Ellen
Assay Remarks: VZV Antiviral (ELISA) assay
Assay type: cell-based
Condition Parameters: VZV strain Ellen in HFF cells
Protocol: For the generation of stock VZV to be used in the assay, VZV strain Ellen (ATCC #VR-1367) is used to infect human foreskin fibroblast (HFF) cells at low multiplicity (less than 0.1) and incubated overnight at 37° C. in 5% CO2. […] Antiviral activity (IC50) of the test compound is determined by comparing the flourescence obtained in absence of compound to that obtained in the presence of compound.
Each entry below carries its recorded IC50 (ug/ml) VZV.
Experimental Endpoint: IC50 (ug/ml) VZV

>>> data_value("COc1cc(OC)c(NC(=S)Nc2ccc(NC(=O)c3snnc3-c3ccccc3)cc2)cc1Cl")
">10 µg/mL"
>>> data_value("CC(NC(=S)Nc1ccc(NC(=O)c2csnn2)cc1)c1cc(C(F)(F)F)cc(C(F)(F)F)c1 (centres unmarked)")
">7.5 µg/mL"
>>> data_value("O=C(Nc1ccc(NC(=S)Nc2cc(N3CCC(O)C3)cc(C(F)(F)F)c2)cc1)c1csnn1 (centres unmarked)")
"3 µg/mL"
>>> data_value("COc1cc(OC)c(NC(=S)Nc2ccc(NC(=O)c3ccno3)cc2)cc1Cl")
">10 µg/mL"
>>> data_value("O=C(Nc1ccc(NC(=S)NCc2cc(Cl)cc(Cl)c2)cc1)c1csnn1")
">10 µg/mL"
>>> data_value("CC(NC(=S)Nc1ccc(NC(=O)c2ccco2)cc1)c1ccccc1 (centres unmarked)")
"1 µg/mL"
>>> data_value("CC(NC(=S)Nc1ccc(NC(=O)c2cscn2)cc1)c1cc(F)cc(C(F)(F)F)c1 (centres unmarked)")
">7.5 µg/mL"
>>> data_value("CN1CCN(c2cc(NC(=S)Nc3ccc(NC(=O)c4csnn4)cc3)cc(C(F)(F)F)c2)CC1")
">10 µg/mL"
>>> data_value("CC(NC(=S)Nc1ccc(NC(=O)c2cscn2)cc1)c1ccc(Cl)c(Cl)c1 (centres unmarked)")
"0.19 µg/mL"
>>> data_value("CC(NC(=S)Nc1ccc(NC(=O)c2cscn2)cc1)c1ccc(C(F)(F)F)cc1F (centres unmarked)")
">7.5 µg/mL"
>>> data_value("O=C(Nc1ccc(NC(=S)Nc2ccc(SC(F)(F)F)c(Cl)c2)cc1)c1ccco1")
">10 µg/mL"
>>> data_value("O=C(Nc1ccc(NC(=S)NCCc2cc(C(F)(F)F)ccc2F)cc1)c1csnn1")
"1 µg/mL"
>>> data_value("O=C(Nc1ccc(NC(=S)NCc2cc(Cl)cc(Cl)c2)cc1)c1ccco1")
"8 µg/mL"
>>> data_value("O=C(CN1CCCCC1)Nc1ccc(NC(=S)Nc2ccc(NC(=O)c3csnn3)cc2)cc1Cl")
"6 µg/mL"
>>> data_value("CCC(NC(=S)Nc1ccc(NC(=O)c2csnn2)cc1)c1cc(C(F)(F)F)cc(C(F)(F)F)c1 (centres unmarked)")
">7.5 µg/mL"
>>> data_value("Nc1ccc(Cl)cc1NC(=S)Nc1ccc(NC(=O)c2ccco2)cc1")
"9 µg/mL"
>>> data_value("CC(NC(=S)Nc1ccc(NC(=O)c2ccc3ccccc3n2)cc1)c1ccc(F)cc1 (centres unmarked)")
">7.5 µg/mL"
